Exercise: for every item that follows, state its recorded viability at 20 µM.
# Run Description: in vitro
# Format: cell-based
# Condition Context: mouse
Give a bare numeral; the unit % is implied.

What the record says about CC(=O)O[C@H]1[C@@H](OC(C)=O)[C@]2(C)[C@H](CC[C@@]3(C)[C@H](c4ccoc4)C(=O)[C@H]4O[C@@]423)[C@@]2(C)C=CC(=O)C(C)(C)[C@H]12 [Compound 10, 6α-acetylepoxyazadirone] : viability at 20 µM is 86.1

What the record says about CC1(C)C(=O)C=CC2(C)C1=C(O)C(=O)C1(C)C2(O)C(O)CC2(C)C(c3ccoc3)CC3OC321 (stereo not drawn) [Compound 17, pentandricine G] : viability at 20 µM is 73.1
